Assayed Target: Thromboxane A2 receptor (Homo sapiens)
Sequence (whole entry): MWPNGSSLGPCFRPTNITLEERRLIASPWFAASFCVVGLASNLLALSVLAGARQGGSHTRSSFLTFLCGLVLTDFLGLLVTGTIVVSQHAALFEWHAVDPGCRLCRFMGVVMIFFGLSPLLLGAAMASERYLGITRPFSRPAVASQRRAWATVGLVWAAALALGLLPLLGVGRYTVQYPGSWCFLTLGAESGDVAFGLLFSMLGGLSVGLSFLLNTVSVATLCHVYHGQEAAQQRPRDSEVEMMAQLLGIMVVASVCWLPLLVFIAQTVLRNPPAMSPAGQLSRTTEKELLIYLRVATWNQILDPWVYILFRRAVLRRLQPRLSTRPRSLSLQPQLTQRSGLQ
Test Name: Tested in vitro for percent inhibition against TXA2 / PGH-2 receptor using [125I]PTA-OH in human platelets at 10 e-7 M
Kindly return True if reported inhibition is no lower than 30%; return False if it is lower.

Prompt: Reported inhibition reaches at least 30% for O=C(O)CCCSc1nc2cccnc2n1Cc1ccc(Cl)cc1 ?
Completion: False

Prompt: Also need O=C(O)CC(Cc1nc2ccccc2n1Cc1ccc(Cl)cc1)c1ccccc1 (stereo unspecified) , thanks.
Completion: False

Prompt: Also need CC(C)(CC(=O)O)Cc1nc2cc(F)ccc2n1Cc1ccc(Br)cc1 , thanks.
Completion: True

Prompt: Also need O=C(O)[C@@H]1CC=CC[C@@H]1c1nc2cc(F)ccc2n1Cc1ccc(Cl)cc1 , thanks.
Completion: False

Prompt: Also need CC(C)(CC(=O)O)Cc1nc2cc(Cl)ccc2n1Cc1ccc(Br)cc1 , thanks.
Completion: True

Prompt: Also need CC(C)(CC(=O)O)Cc1nc2cc(F)ccc2n1Cc1ccc(Cl)cc1 , thanks.
Completion: True

Prompt: Also need CC(C)(CC(=O)O)Cc1nc2ccccc2n1Cc1ccc(F)cc1 , thanks.
Completion: True

Prompt: Also need CC(C)(CC(=O)O)Cc1nc2ccccc2n1Cc1ccccc1 , thanks.
Completion: False

Prompt: Also need CSc1ccc(Cn2c(CC(C)(C)CC(=O)O)nc3cc(Cl)ccc32)cc1 , thanks.
Completion: True

Prompt: Also need CC(C)(Sc1nc2cc(F)ccc2n1Cc1ccc(Cl)cc1)C(=O)O , thanks.
Completion: False

----------
Assayed Target: Thromboxane A2 receptor (Homo sapiens) (UniProt P21731)
Test Name: In vitro for percent inhibition against TXA2 / PGH-2 receptor using [125I]PTA-OH in human platelets at 10 e-5 M
Provide the recorded inhibition for the entries that follow.
State just the number; it will be interpreted in %.

Prompt: # query: inhibition of entry CC(C)(CC(=O)O)Cc1nc2cc(Cl)ccc2n1Cc1ccc(S(C)(=O)=O)cc1
Completion: 82

Prompt: Also need CC(C)(Cc1nc2cc(F)ccc2n1Cc1ccc(Cl)cc1)C(=O)O , thanks.
Completion: 50

Prompt: Also need CSc1ccc(Cn2c(CC(C)(C)CC(=O)O)nc3cc(F)ccc32)cc1 , thanks.
Completion: 100

Prompt: Also need CC(C)(CC(=O)O)Cc1nc2ccccc2n1Cc1ccc(Br)cc1 , thanks.
Completion: 96

Prompt: Also need CC(C)(CC(=O)O)Cc1nc2cc(Cl)ccc2n1Cc1ccc(Br)cc1 , thanks.
Completion: 100

----------
Assayed Target: UniProt P21731
Test Name: Tested in vitro for percent inhibition against TXA2 / PGH-2 receptor using [125I]PTA-OH in human platelets at 10 e-7 M
Kindly return criterion met if reported inhibition is no lower than 80%; return criterion not met if it is lower.

Prompt: Reported inhibition reaches at least 80% for CC(C)(CCC(=O)O)Cc1nc2cc(F)ccc2n1Cc1ccc(Cl)cc1 ?
Completion: criterion not met

Prompt: Also need CC(C)(CC(=O)O)Cc1nc2cc(F)ccc2n1Cc1ccc(Cl)c(Cl)c1 , thanks.
Completion: criterion met

Prompt: Also need COc1ccc(Cn2c(CC(C)(C)CC(=O)O)nc3cc(Cl)ccc32)cc1 , thanks.
Completion: criterion met

Prompt: Also need CC(C)(CC(=O)O)Cc1nc2cccnc2n1Cc1ccc(Cl)cc1 , thanks.
Completion: criterion not met

Prompt: Also need CC(C)(CC(N)=O)Cc1nc2ccccc2n1Cc1ccc(Cl)cc1 , thanks.
Completion: criterion not met

----------
Assayed Target: Thromboxane A2 receptor (Homo sapiens) (UniProt P21731)
Test Name: Tested in vitro for percent inhibition against TXA2 / PGH-2 receptor using [125I]PTA-OH in human platelets at 10 e-7 M
Property Name: inhibition (%)
State just the number; it will be interpreted in %.

Prompt: # query: inhibition of entry CCC(C)(CC(=O)O)Cc1nc2ccccc2n1Cc1ccc(Cl)cc1 (stereo not given)
Completion: 57

Prompt: Also need O=C(O)[C@H]1CCC[C@@H]1c1nc2cc(F)ccc2n1Cc1ccc(Cl)cc1 , thanks.
Completion: 37

Prompt: Also need O=C(O)CCCSc1nc2cc(Cl)cnc2n1Cc1ccc(Br)cc1F , thanks.
Completion: 24

Prompt: Also need CC(C)(CC(=O)O)Cc1nc2ccccc2n1Cc1ccc(Br)cc1 , thanks.
Completion: 86

Prompt: Also need CC(C)(CC(=O)O)Cc1nc2cc(Cl)c(Cl)cc2n1Cc1ccc(Cl)cc1 , thanks.
Completion: 14

----------
Assayed Target: UniProtKB P21731
Sequence (whole entry): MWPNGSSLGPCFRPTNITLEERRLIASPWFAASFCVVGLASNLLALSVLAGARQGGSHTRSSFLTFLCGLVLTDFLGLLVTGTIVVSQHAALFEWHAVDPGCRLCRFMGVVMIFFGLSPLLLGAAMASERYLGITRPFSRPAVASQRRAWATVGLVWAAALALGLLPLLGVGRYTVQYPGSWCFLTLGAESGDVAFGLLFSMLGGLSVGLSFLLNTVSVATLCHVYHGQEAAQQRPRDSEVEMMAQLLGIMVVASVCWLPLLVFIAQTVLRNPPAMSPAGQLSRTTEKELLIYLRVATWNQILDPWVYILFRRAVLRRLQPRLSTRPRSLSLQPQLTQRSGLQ
Test Name: In vitro for percent inhibition against TXA2 / PGH-2 receptor using [125I]PTA-OH in human platelets at 10 e-5 M
Provide the recorded inhibition for the entries that follow.
State just the number; it will be interpreted in %.

Prompt: Query the reported inhibition for UniProtKB P21731; item: CC(C)(CC(=O)O)c1nc2ccccc2n1Cc1ccc(Cl)cc1
Completion: 28

Prompt: Also need CC(C)(CC(=O)O)Cc1nc2cc(F)ccc2n1Cc1ccc(S(C)(=O)=O)cc1 , thanks.
Completion: 100

Prompt: Also need CSc1ccc(Cn2c(CC(C)(C)CC(=O)O)nc3cc(Cl)cnc32)cc1 , thanks.
Completion: 87

Prompt: Also need O=C(O)CCCSc1nc2cccnc2n1Cc1ccc(Cl)cc1 , thanks.
Completion: 64

Prompt: Also need CC(C)(CC(=O)O)Cc1nc2ccccc2n1Cc1ccc(Br)cc1F , thanks.
Completion: 99

Prompt: Also need CC(C)(CC(=O)O)Cc1nc2ccccc2n1Cc1cccc(C(F)(F)F)c1 , thanks.
Completion: 100

----------
Assayed Target: Thromboxane A2 receptor (Homo sapiens)
Test Name: Tested in vitro for percent inhibition against TXA2 / PGH-2 receptor using [125I]PTA-OH in human platelets at 10 e-7 M
Provide the recorded inhibition for the entries that follow.
State just the number; it will be interpreted in %.

Prompt: # query: inhibition of entry O=C(O)CC1(Cc2nc3cc(F)ccc3n2Cc2ccc(Cl)cc2)CC1
Completion: 80

Prompt: Also need CC(C)(CC(=O)O)Cc1nc2cc(F)ccc2n1Cc1ccc(Cl)cc1F , thanks.
Completion: 58

Prompt: Also need O=C(O)CC1(Cc2nc3cc(F)ccc3n2Cc2ccc(Cl)cc2)CCCC1 , thanks.
Completion: 71

Prompt: Also need CC(C)(CC(=O)O)Cc1nc2cc(F)ccc2n1Cc1ccc(Br)cc1F , thanks.
Completion: 98

Prompt: Also need CCC(CC)(CC(=O)O)Cc1nc2ccccc2n1Cc1ccc(Cl)cc1 , thanks.
Completion: 35

Prompt: Also need O=C(O)CCCCSc1nc2cc(F)ccc2n1Cc1ccc(Cl)cc1 , thanks.
Completion: 28

Prompt: Also need O=C(O)CCCSc1nc2cc(Cl)cnc2n1Cc1ccc(Cl)cc1 , thanks.
Completion: 6

Prompt: Also need CSc1ccc(Cn2c(CC(C)(C)CC(=O)O)nc3cc(Cl)cnc32)cc1 , thanks.
Completion: 82

----------
Assayed Target: Thromboxane A2 receptor (Homo sapiens) (UniProt P21731)
Test Name: Tested in vitro for percent inhibition against TXA2 / PGH-2 receptor using [125I]PTA-OH in human platelets at 10 e-7 M
Provide the recorded inhibition for the entries that follow.
State just the number; it will be interpreted in %.

Prompt: Query the reported inhibition for Thromboxane A2 receptor (Homo sapiens) (UniProt P21731); item: CC(C)(CC(=O)O)Cc1nc2cc(Cl)cnc2n1Cc1ccc(Cl)cc1 [MIPITROBAN]
Completion: 97

Prompt: Also need O=C(O)CC1(Cc2nc3cc(F)ccc3n2Cc2ccc(Cl)cc2)CCCCC1 , thanks.
Completion: 0

Prompt: Also need CSc1ccc(Cn2c(CC(C)(C)CC(=O)O)nc3cc(F)ccc32)cc1 , thanks.
Completion: 100

Prompt: Also need COc1ccc2c(c1)nc(CC(C)(C)CC(=O)O)n2Cc1ccc(Cl)cc1 , thanks.
Completion: 44

Prompt: Also need CC(C)(CC(=O)O)Cc1nc2cc(Cl)ccc2n1Cc1ccc(Br)cc1F , thanks.
Completion: 74

Prompt: Also need CC(C)(CC(=O)O)Cc1nc2cc(Cl)ccc2n1Cc1ccc(Cl)cc1 , thanks.
Completion: 74

Prompt: Also need O=C(O)CCc1nc2cc(F)ccc2n1Cc1ccc(Cl)cc1 , thanks.
Completion: 0

Prompt: Also need CC(C)(CC#N)Cc1nc2ccccc2n1Cc1ccc(Cl)cc1 , thanks.
Completion: 0

Prompt: Also need CC(C)(CC(=O)O)Cc1nc2ccccc2n1Cc1cccc(C(F)(F)F)c1 , thanks.
Completion: 49

Prompt: Also need O=C(O)CCCSc1nc2cc(F)ccc2n1Cc1ccc(Cl)cc1 , thanks.
Completion: 8

Prompt: Also need CC(C)(Cc1nc2cc(F)ccc2n1Cc1ccc(Cl)cc1)C(=O)O , thanks.
Completion: 0

Prompt: Also need CC(C)(CC(=O)O)Cc1nc2cc(Cl)ccc2n1Cc1ccc(Cl)c(Cl)c1 , thanks.
Completion: 71

Prompt: Also need Cc1ccc(Cn2c(CC(C)(C)CC(=O)O)nc3ccccc32)cc1 , thanks.
Completion: 52

Prompt: Also need CC(C)(CC(=O)O)Cc1nc2cc(Br)ccc2n1Cc1ccc(Cl)cc1 , thanks.
Completion: 38

Prompt: Also need CC(C)(CC(=O)O)Cc1nc2ccccc2n1Cc1ccc(Cl)cc1 , thanks.
Completion: 85

Prompt: Also need O=C(O)COc1ccc(CCNS(=O)(=O)c2ccccc2)cc1 , thanks.
Completion: 13

Values were extracted from ChEMBL document CHEMBL1126650.
